Biological target: T1, human plasma Kallikrein (human, UniProt P03952 20-638)
T1 construct: also called hPK; human PK
T1 sequence (P03952 20-638 limits assumed): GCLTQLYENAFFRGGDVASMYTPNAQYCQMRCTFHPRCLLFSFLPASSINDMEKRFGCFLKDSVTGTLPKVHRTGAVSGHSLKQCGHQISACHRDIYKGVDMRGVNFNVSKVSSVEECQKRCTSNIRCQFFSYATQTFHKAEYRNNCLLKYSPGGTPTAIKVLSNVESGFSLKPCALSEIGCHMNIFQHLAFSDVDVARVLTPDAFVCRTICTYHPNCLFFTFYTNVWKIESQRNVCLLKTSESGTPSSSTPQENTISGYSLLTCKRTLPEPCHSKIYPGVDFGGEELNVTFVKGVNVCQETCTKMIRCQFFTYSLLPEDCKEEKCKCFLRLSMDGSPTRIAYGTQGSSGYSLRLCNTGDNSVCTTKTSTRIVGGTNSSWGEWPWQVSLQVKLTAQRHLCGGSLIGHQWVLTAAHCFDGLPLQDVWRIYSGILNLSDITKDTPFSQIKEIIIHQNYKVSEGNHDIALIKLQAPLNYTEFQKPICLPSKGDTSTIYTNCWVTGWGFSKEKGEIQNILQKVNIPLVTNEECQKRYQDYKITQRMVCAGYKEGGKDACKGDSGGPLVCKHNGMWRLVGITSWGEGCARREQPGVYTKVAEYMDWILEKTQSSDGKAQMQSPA
Experiment: enzyme inhibition
Numbered stars: 1 amine (or outer) side, 2 acyl side, 3 side chain; on linkers, the order of the positions; unused ones are H or OH. Bridge positions count the residues as written; N and C are the ends. Ends that are not written are not given here. TBMB = c1c(C[*:1])cc(C[*:3])cc1C[*:2]
REPORTED ENDPOINT: pKi
Note on pKi: it is the negative log10 of concentration, concentration in mol/L.

# BINDER, ENDPOINT VALUE
records = [
    ("ACAWPAKCLTRELCA (linker 2-8-14 via TBMB; not fully specified (N-terminus, C-terminus)) [1B1]", 8.09),
]

pKi reading for ACGGYNNCRAFSYCA (linker 2-8-14 via TBMB; not fully specified (N-terminus, C-terminus)) [1F7] : 8.66

pKi reading for ACNWPYRCLHTDLCA (linker 2-8-14 via TBMB; not fully specified (N-terminus, C-terminus)) [06-157] : 8.48
